What Emax was measured for each of the following?
tested on: SK-N-SH human neuroblastoma cells; test: Serum Deprivation/JC-1 Mitochondrial Membrane Potential (MMP) Assay; format: cell-based; details: Homo sapiens, SK-N-SH, percent maximal intensity in JC-1 ratio normalized to peak value for 10 μM dimebolin, serum deprivation, read-out: JC-1 max %
Answers are plain numbers, in %.

[
  {
    "compound": "O=C(Cn1ncccc1=O)N1CCC2CN(Cc3ccccc3)CCN2c2ccccc21 (stereo not drawn)",
    "quantity.unit": "%",
    "Emax": 143
  },
  {
    "compound": "Cc1cc(C(=O)N2Cc3ccccc3N3CCN(Cc4ccccc4)CC3C2)c(C)n1C (stereo not drawn)",
    "quantity.unit": "%",
    "Emax": 189
  },
  {
    "compound": "Fc1ccc(CN2Cc3ccccc3N3CCN(Cc4ccccc4)CC3C2)cc1F (stereo not drawn)",
    "quantity.unit": "%",
    "Emax": 128
  },
  {
    "compound": "Clc1ccccc1CN1Cc2ccccc2N2CCN(Cc3ccccc3)CC2C1 (stereo not drawn)",
    "quantity.unit": "%",
    "Emax": 145
  },
  {
    "compound": "Fc1ccc(CN2CCN3c4ccccc4CN(Cc4ccc(Br)cc4)CC3C2)cc1 (stereo not drawn)",
    "quantity.unit": "%",
    "Emax": 161
  }
]

Could you report Emax for every entry in the following list?
1. Brc1ccc(CN2Cc3ccccc3N3CCNCC3C2)cc1 (stereo not drawn)
2. Cc1ccc(CN2Cc3ccccc3N3CCN(Cc4ccccc4)CC3C2)s1 (stereo not drawn)
3. O=C(c1ccccc1)N1Cc2ccccc2N2CCN(Cc3ccccc3)CC2C1 (stereo not drawn)
4. O=C(N1CCOCC1)N1Cc2ccccc2N2CCN(c3ccc(Cl)cc3)CC2C1 (stereo not drawn)

1. 105
2. 133
3. 57
4. 127

====

system: SK-N-SH human neuroblastoma cells; assay: Serum Deprivation/JC-1 Mitochondrial Membrane Potential (MMP) Assay; type: cell-based; conditions: Homo sapiens, SK-N-SH, 18 h, serum deprivation ~18 hours, JC-1 ratio normalized to peak value for 10 μM dimebolin, single curve fit to mean data of n=2-3
Note to self: EC50 under 4 µM means yes, ties and anything higher get no.

Here's what some known entries look like.
[
  {
    "compound": "Clc1cccc(CN2Cc3ccccc3N3CCN(Cc4ccccc4)CC3C2)c1 (centres unmarked)",
    "classification": "yes"
  },
  {
    "compound": "Fc1ccc(CN2CCN3c4ncccc4N(C[C@@H]4CCN4)CCC3C2)cc1 (some centres unmarked)",
    "classification": "no"
  },
  {
    "compound": "Fc1ccc(CN2CCN3c4ccccc4CN(Cc4ccc(Br)cc4)C[C@H]3C2)cc1 (single isomer, unassigned)",
    "classification": "yes"
  },
  {
    "compound": "c1ccc(CN2CCN3c4ccccc4CN(Cc4cnc5ccccc5c4)CC3C2)cc1 (centres unmarked)",
    "classification": "yes"
  }
]

Given Fc1ccc(CN2CCN3c4ncccc4N(CC4CNC4)CCC3C2)cc1 (centres unmarked) , is recorded EC50 strictly lower than 4 µM?
no

====

test system: SK-N-SH human neuroblastoma cells; experiment: Serum Deprivation/JC-1 Mitochondrial Membrane Potential (MMP) Assay; format: cell-based; settings: serum deprivation ~18 hours, JC-1 ratio normalized to peak value for 10 μM dimebolin, single curve fit to mean data of n=2-3
What pEC50 was measured for each of the following?
Give bare numbers, as −log10 of the molar value.

Worked set:
[
  {
    "compound": "Brc1ccc(CN2Cc3ccccc3N3CCN(Cc4ccccc4)CC3C2)cc1 (single isomer, unassigned; (-)) [Example 18]",
    "tgt": "SK-N-SH human neuroblastoma cells",
    "pEC50": 5.57
  },
  {
    "compound": "Brc1ccc(CN2Cc3ccccc3N3CCN(Cc4ccccc4)CC3C2)cc1 (single isomer, unassigned; (+)) [Example 19]",
    "tgt": "SK-N-SH human neuroblastoma cells",
    "pEC50": 5.81
  },
  {
    "compound": "c1ccc(CN2CCN3c4ccccc4C[N+](Cc4ccccc4)(Cc4ccccc4)CC3C2)cc1 (centres unmarked)",
    "tgt": "SK-N-SH human neuroblastoma cells",
    "pEC50": 5.19
  },
  {
    "compound": "Brc1ccc(CN2Cc3ccccc3N3CCN(Cc4ccccc4)CC3C2)cc1 (centres unmarked) [Example 3]",
    "tgt": "SK-N-SH human neuroblastoma cells",
    "pEC50": 5.54
  }
]

Let's switch to this compound now.
// returns reported pEC50 for input Brc1ccc(CN2Cc3ccccc3N3CCN(Cc4ccccc4)CC3C2)cc1 (centres unmarked) [Example 123]
5.46

====

tested on: SK-N-SH human neuroblastoma cells; assay: Serum Deprivation/JC-1 Mitochondrial Membrane Potential (MMP) Assay; format: cell-based; conditions: Homo sapiens, SK-N-SH, 18 h, serum deprivation ~18 hours, JC-1 ratio normalized to peak value for 10 μM dimebolin, single curve fit to mean data of n=2-3
reported.property: pEC50
Answers are plain numbers, as −log10 of the molar value.

Worked set:
[
  {
    "molecule": "Cc1cc(C(=O)N2Cc3ccccc3N3CCN(Cc4ccccc4)CC3C2)c(C)n1C (stereo not drawn) [Example 95]",
    "tgt": "SK-N-SH human neuroblastoma cells",
    "pEC50": 6.55
  },
  {
    "molecule": "Fc1ccc(CN2CCN3c4ncccc4N(CC4CCC4)CCC3C2)cc1 (stereo not drawn) [Example 65]",
    "tgt": "SK-N-SH human neuroblastoma cells",
    "pEC50": 5.34
  },
  {
    "molecule": "Fc1ccc(CN2Cc3ccccc3N3CCN(Cc4ccccc4)CC3C2)cc1F (stereo not drawn) [Example 25]",
    "tgt": "SK-N-SH human neuroblastoma cells",
    "pEC50": 4.80
  },
  {
    "molecule": "Ic1ccc(CN2Cc3ccccc3N3CCN(Cc4ccccc4)CC3C2)cc1 (stereo not drawn) [Example 46]",
    "tgt": "SK-N-SH human neuroblastoma cells",
    "pEC50": 5.73
  },
  {
    "molecule": "O=C1C2CNCCN2c2ccccc2CN1Cc1ccc(Br)cc1 (stereo not drawn) [Example 70]",
    "tgt": "SK-N-SH human neuroblastoma cells",
    "pEC50": 5.02
  }
]

Could you report pEC50 for every entry in the following list?
1. O=C(c1ccncc1)N1CCC2CN(Cc3ccccc3)CCN2c2ccccc21 (stereo not drawn) [Example 43]
2. Fc1ccc(CN2CCN3c4ncccc4N(CC4CC4)CCC3C2)cc1 (stereo not drawn) [Example 64]
3. Brc1ccc(CN2Cc3ccccc3N3CCN(Cc4ccccc4)CC3C2)nc1 (stereo not drawn) [Example 42]

1. 5.17
2. 5.25
3. 5.51

// returns reported pEC50 for input c1ccc(CN2CCN3c4ccccc4CN(Cc4ccc5ccccc5n4)CC3C2)cc1 (stereo not drawn) [Example 126]
5.72

====

What Emax was measured for each of the following?
Test system: SK-N-SH human neuroblastoma cells
Assay: Serum Deprivation/JC-1 Mitochondrial Membrane Potential (MMP) Assay
Assay type: cell-based
Details: Homo sapiens, SK-N-SH, percent maximal intensity in JC-1 ratio normalized to peak value for 10 μM dimebolin, serum deprivation, read-out: JC-1 max %
Excerpt: The method also involves a high-throughput assay using serum-deprivation conditions involving neuronal cells to screen for compounds that increase or preserve mitochondrial membrane potential. Such compounds can be found to aid in rescuing cells from energy-depletion that occurs in several neurodegenerative states. […]
Give bare numbers, in %.

Worked set:
[
  {
    "molecule": "O=C(N1Cc2ccccc2N2CCN(Cc3ccccc3)CC2C1)C1(c2ccccc2)CC1 (stereo not drawn) [Example 13]",
    "Emax [%]": 175
  },
  {
    "molecule": "O=C(c1ccc(Br)cc1)N1Cc2ccccc2N2CCN(Cc3ccccc3)CC2C1 (stereo not drawn) [Example 31]",
    "Emax [%]": 218
  },
  {
    "molecule": "c1ccc(CN2CCN3c4ccccc4CN(Cc4cncc5ccccc45)CC3C2)cc1 (stereo not drawn) [Example 37]",
    "Emax [%]": 172
  },
  {
    "molecule": "Brc1cccc(CN2Cc3ccccc3N3CCN(Cc4ccccc4)CC3C2)c1 (stereo not drawn) [Example 136]",
    "Emax [%]": 172
  },
  {
    "molecule": "c1ccc(CN2CCN3c4ccccc4CN(CC4CCCC4)CC3C2)cc1 (stereo not drawn) [Example 125]",
    "Emax [%]": 98
  }
]

Could you report Emax for every entry in the following list?
1. Fc1ccc(CN2CCN3c4ccccc4CNCC3C2)cc1 (stereo not drawn) [Example 40]
2. CC(C)N1CCN(C(=O)N2Cc3ccccc3N3CCN(Cc4ccccc4)CC3C2)CC1 (stereo not drawn) [Example 161]
3. Fc1ccc(CN2CCN3c4ncccc4N(CC4CNC4)CCC3C2)cc1 (stereo not drawn) [Example 69]
4. c1ccc(CN2CCN3c4ccccc4CN(Cc4ccc5ccccc5c4)CC3C2)cc1 (stereo not drawn) [Example 124]

1: 224; 2: 218; 3: 154; 4: 193

Could you report Emax for every entry in the following list?
1. O=C1C2CNCCN2c2ccccc2CN1Cc1ccc(Br)cc1 (stereo not drawn) [Example 70]
2. CCN(CC)C(=O)N1Cc2ccccc2N2CCN(Cc3ccccc3)CC2C1 (stereo not drawn) [Example 158]
3. COc1ccc(CN2Cc3ccccc3N3CCN(Cc4ccccc4)CC3C2)cc1 (stereo not drawn) [Example 134]
4. Clc1cccc(CN2Cc3ccccc3N3CCN(Cc4ccccc4)CC3C2)c1 (stereo not drawn) [Example 140]
5. CN1CCC2CN(Cc3ccccc3)CCN2c2ccccc21 (stereo not drawn) [Example 49]

[156, 181, 163, 189, 128]

Could you report Emax for every entry in the following list?
1. CC(=O)N1CCN2c3ccccc3CN(C(=O)N3CCOCC3)CC2C1 (stereo not drawn) [Example 83]
2. O=C(NCCc1ccccn1)N1Cc2ccccc2N2CCN(Cc3ccccc3)CC2C1 (stereo not drawn) [Example 151]

34
163
